- Test system: Plasmodium berghei
- experiment_summary: Luciferase/luciferin-expressing antifolate-resistant parasites were used to infect a culture of HepG2 cells that were pre-incubated with compounds. Infected hepatocytes emit light due to the luciferase reaction. Assay results are presented as the percent inhibition of light emission compared to control. […]
- Assay type: functional
- assay_conditions: sporozoite, PBLUC_HILL_SLOPE 11, PBLUC_R_SQUARED 0.594, read-out: LUCIFERASE INFECTION ASSAY - IC50
pIC50: −log10 of the molar value.
endpoint_label: pIC50

[[record]]
chem_smiles = "COC(=O)c1ccc(=O)n(CC(=O)Nc2ccc(C(C)(C)C)cc2)c1"
endpoint_result = 5.04


====

- System: Plasmodium berghei
- experiment_summary: Luciferase/luciferin-expressing antifolate-resistant parasites were used to infect a culture of HepG2 cells that were pre-incubated with compounds. Infected hepatocytes emit light due to the luciferase reaction. Assay results are presented as the percent inhibition of light emission compared to control. […]
- Format: functional
- assay_conditions: sporozoite, read-out: LUCIFERASE INFECTION ASSAY - IC50
pIC50: −log10 of the molar value.
endpoint_label: pIC50

[[record]]
molecule = "CCOC(=O)c1c(NC(=O)C(C)N(C)CC(=O)Nc2cc(C)ccc2C)sc2c1CCC(C)C2 (centres undefined)"
test_target = "Plasmodium berghei"
endpoint_result = "< 5.00"

[[record]]
molecule = "O=C1OC(C23CC4CC(CC(C4)C2)C3)=N/C1=C\\c1ccc(Cl)c([N+](=O)[O-])c1"
test_target = "Plasmodium berghei"
endpoint_result = "< 5.00"

[[record]]
molecule = "CN(C(=O)CCc1cc(C(C)(C)C)c(O)c(C(C)(C)C)c1)C1CCS(=O)(=O)C1 (centres undefined)"
test_target = "Plasmodium berghei"
endpoint_result = "< 5.00"

[[record]]
molecule = "Cc1cc(NC(=O)CCc2c(-c3ccc(F)cc3)[nH]c3ccc(F)cc23)no1"
test_target = "Plasmodium berghei"
endpoint_result = "< 5.00"

[[record]]
molecule = "N=C(NOC(=O)c1cnn(-c2ccccc2)c1C(F)(F)F)c1ccc(Cl)cc1"
test_target = "Plasmodium berghei"
endpoint_result = 5.97

[[record]]
molecule = "CCOc1ccccc1C(=O)N(C)Cc1nc(-c2ccccc2)no1"
test_target = "Plasmodium berghei"
endpoint_result = "< 5.01"

[[record]]
molecule = "O=C(Nc1cc(Cl)cc(Cl)c1)OCc1ccc(Oc2ccccc2)c([N+](=O)[O-])c1"
test_target = "Plasmodium berghei"
endpoint_result = "< 5.12"

[[record]]
molecule = "CCC(C)c1ccc(-c2cc(C(=O)OCC(=O)N3c4ccccc4NC(=O)C3(C)C)c3ccccc3n2)cc1 (centres undefined)"
test_target = "Plasmodium berghei"
endpoint_result = 5.05

[[record]]
molecule = "COc1cc(-c2cnc3cnc(-c4cccc(NC(C)=O)c4)cn23)cc(OC)c1OC"
test_target = "Plasmodium berghei"
endpoint_result = 5.41


====

- System: Plasmodium berghei
- experiment_summary: Luciferase/luciferin-expressing antifolate-resistant parasites were used to infect a culture of HepG2 cells that were pre-incubated with compounds. Infected hepatocytes emit light due to the luciferase reaction. Assay results are presented as the percent inhibition of light emission compared to control. […]
- Format: functional
- assay_conditions: sporozoite, PBLUC_HILL_SLOPE 6.16, PBLUC_R_SQUARED 0.605, read-out: LUCIFERASE INFECTION ASSAY - IC50
endpoint_label: IC50

[[record]]
chem_smiles = "CC(C)c1ccc(-n2c(SCc3ccccc3Cl)nnc2-c2ccc(C(C)(C)C)cc2)cc1"
endpoint_label = "IC50"
endpoint_result = "3.2 µM"

